Values were extracted from patent US20090291923A1.

assay-remarks: solubility in aqueous pH 7.4 buffer
Format: physicochemical
condition-info: aqueous pH 7.4 buffer solution, pH 7.4, 25° C.
assay-endpoint: solubility

Input: What does the data say about its solubility? Entry: `C[C@H]1[C@@H](CCc2cc(C(=O)O)c(C(=O)O)cc2CC[C@H]2O[C@@H]3O[C@@]4(C)CC[C@H]5[C@H](C)CC[C@@H]([C@H]2C)[C@@]35OO4)O[C@@H]2O[C@@]3(C)CC[C@H]4[C@H](C)CC[C@@H]1[C@@]24OO3`
Output: ~14 mg/mL

---

System: chloroquine-sensitive Plasmodium falciparum (NF 54) parasites
assay-remarks: in vitro antimalarial potency, standard assay
Type: cell-based
condition-info: Plasmodium falciparum; chloroquine-sensitive P. falciparum NF 54; quadruplicates; read-out: IC50 (nM), Antimalarial Activities in vitro
assay-endpoint: IC50 (nM)
Report only the number, with the unit nM understood.

Input: What does the data say about its IC50? Entry: `C=C(CC[C@H]1O[C@@H]2O[C@@]3(C)CC[C@H]4[C@H](C)CC[C@@H]([C@H]1C)[C@@]24OO3)C(=C)CC[C@H]1O[C@@H]2O[C@@]3(C)CC[C@H]4[C@H](C)CC[C@@H]([C@H]1C)[C@@]24OO3`
Output: 2.9

Input: What does the data say about its IC50? Entry: `C[C@H]1[C@@H](CCc2cc(CO)c(CO)cc2CC[C@H]2O[C@@H]3O[C@@]4(C)CC[C@H]5[C@H](C)CC[C@@H]([C@H]2C)[C@@]35OO4)O[C@@H]2O[C@@]3(C)CC[C@H]4[C@H](C)CC[C@@H]1[C@@]24OO3`
Output: 0.77

Input: What does the data say about its IC50? Entry: `COC(=O)c1cc(CC[C@H]2O[C@@H]3O[C@@]4(C)CC[C@H]5[C@H](C)CC[C@@H]([C@H]2C)[C@@]35OO4)c(CC[C@H]2O[C@@H]3O[C@@]4(C)CC[C@H]5[C@H](C)CC[C@@H]([C@H]2C)[C@@]35OO4)cc1C(=O)OC`
Output: 1.6
